Study target: Vascular endothelial growth factor receptor 2 (Homo sapiens)
Sequence (P35968 whole entry): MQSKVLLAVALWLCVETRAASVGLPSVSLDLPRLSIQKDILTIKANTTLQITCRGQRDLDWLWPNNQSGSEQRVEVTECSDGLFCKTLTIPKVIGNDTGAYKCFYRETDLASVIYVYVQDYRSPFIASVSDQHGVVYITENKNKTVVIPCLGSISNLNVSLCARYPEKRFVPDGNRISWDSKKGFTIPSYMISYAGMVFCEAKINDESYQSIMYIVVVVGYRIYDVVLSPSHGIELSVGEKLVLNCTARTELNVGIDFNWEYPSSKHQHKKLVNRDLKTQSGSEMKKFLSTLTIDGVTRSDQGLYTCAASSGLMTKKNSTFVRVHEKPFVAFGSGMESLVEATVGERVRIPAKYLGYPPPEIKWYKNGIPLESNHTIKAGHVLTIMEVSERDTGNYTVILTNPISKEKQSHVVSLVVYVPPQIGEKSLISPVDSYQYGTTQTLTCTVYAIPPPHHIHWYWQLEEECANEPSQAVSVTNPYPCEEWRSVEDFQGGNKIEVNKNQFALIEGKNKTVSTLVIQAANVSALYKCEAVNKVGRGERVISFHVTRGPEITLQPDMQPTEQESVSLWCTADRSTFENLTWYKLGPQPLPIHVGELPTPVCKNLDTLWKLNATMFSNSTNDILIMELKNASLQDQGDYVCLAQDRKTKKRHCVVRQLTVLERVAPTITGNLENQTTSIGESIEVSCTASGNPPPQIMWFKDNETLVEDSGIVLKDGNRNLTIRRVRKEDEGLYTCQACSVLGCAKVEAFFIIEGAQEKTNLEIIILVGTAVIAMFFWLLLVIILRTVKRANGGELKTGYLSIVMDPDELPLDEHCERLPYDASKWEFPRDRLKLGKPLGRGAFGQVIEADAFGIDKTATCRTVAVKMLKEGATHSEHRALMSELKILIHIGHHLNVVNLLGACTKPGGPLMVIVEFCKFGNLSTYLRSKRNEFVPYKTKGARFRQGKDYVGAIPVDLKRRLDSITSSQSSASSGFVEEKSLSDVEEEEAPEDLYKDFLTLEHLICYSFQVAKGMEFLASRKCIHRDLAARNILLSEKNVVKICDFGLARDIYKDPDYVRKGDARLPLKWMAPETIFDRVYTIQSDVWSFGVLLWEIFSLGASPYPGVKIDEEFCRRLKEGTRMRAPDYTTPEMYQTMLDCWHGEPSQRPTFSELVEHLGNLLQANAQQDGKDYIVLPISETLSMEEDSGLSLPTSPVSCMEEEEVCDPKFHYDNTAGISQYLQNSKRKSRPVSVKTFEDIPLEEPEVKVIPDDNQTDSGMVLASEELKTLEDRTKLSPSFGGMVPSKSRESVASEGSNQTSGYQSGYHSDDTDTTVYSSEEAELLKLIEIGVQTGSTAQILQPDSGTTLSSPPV
Experiment summary: Inhibition of recombinant human VEGFR2
Recorded pIC50, one value per entry.
Please report pIC50 as the negative decimal logarithm of the molar concentration, giving only the number.

Enquiry: Item O=C1C(=O)c2c(oc3cc(O)c(O)cc23)-c2oc3cc(O)c(O)cc3c21 has what recorded pIC50?
Return: 4.49

###

Study target: UniProt:P35968
Experiment summary: Inhibition of recombinant human VEGFR2
Consider the following compounds and their measured pIC50 readings.
pIC50 (log units): -log10 of the concentration in mol/L.

Enquiry: Give the measured pIC50 of COc1cc2nccc(Oc3ccc(NC(=O)Nc4ccc(F)cc4F)c(F)c3)c2cc1OC .
Return: 5.62

Enquiry: pIC50 lookup needed for CC(=O)CC1(O)C(=O)c2c(oc3cc(O)c(O)cc23)-c2oc3cc(O)c(O)cc3c21 (racemic) , thanks.
Return: 4.28

Enquiry: Item O=C1c2oc3cc(O)c(O)cc3c2C(=O)c2oc3cc(O)c(O)cc3c21 has what recorded pIC50?
Return: 4.15

Enquiry: Looking for the measured pIC50 of CC(=O)Oc1c2oc3cc(O)c(O)cc3c2c(OC(C)=O)c2oc3cc(O)c(O)cc3c12 , can you help?
Return: 4.18
